- test-system: Factor D (Homo sapiens (Human), UniProt P00746)
- Sequence (P00746 26-253): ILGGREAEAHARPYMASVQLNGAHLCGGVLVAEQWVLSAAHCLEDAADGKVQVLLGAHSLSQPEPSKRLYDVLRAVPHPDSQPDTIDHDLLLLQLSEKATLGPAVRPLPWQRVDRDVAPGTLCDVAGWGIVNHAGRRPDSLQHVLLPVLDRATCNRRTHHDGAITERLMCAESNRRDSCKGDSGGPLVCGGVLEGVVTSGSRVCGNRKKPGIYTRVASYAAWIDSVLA
- procedure-details: biochemical
- Format: biochemical
- details: read-out: IC50
Criterion: IC50 strictly under 90 nM. Met: criterion met. Not met: criterion not met.

molecule="CC(=O)c1cn(CC(=O)N2[C@@H]3C[C@@H]3C[C@H]2C(=O)NCc2cc(C#N)cc(Cl)c2F)c2ccccc12 [Example 527]" assigned_category="criterion not met"
molecule="NC(=O)n1cc(NC(=O)N2C[C@@H](N)[C@H](O)[C@H]2C(=O)NCc2cccc(Cl)c2F)c2ccccc21 [Example 429]" assigned_category="criterion not met"
molecule="NC(=O)n1cc(NC(=O)N2C3CC3C[C@H]2C(=O)NCc2cnc(Cl)s2)c2ccccc21 (stereo partly shown) [Example 295]" assigned_category="criterion not met"
molecule="CO[C@H]1[C@@H](C(=O)NC2(c3cccc(Cl)c3)CC2)N(C(=O)Cn2cc(C(C)=O)c3ccccc32)C[C@@H]1F [Example 572]" assigned_category="criterion not met"
molecule="NC(=O)n1cc(CC(=O)N2C[C@H]3C[C@H]3[C@H]2C(=O)N[C@H](CO)c2cccc(Cl)c2F)c2ccccc21 [Example 463]" assigned_category="criterion not met"
molecule="NC(=O)c1cc(Br)cc(NC(=O)[C@@H]2C[C@@H](F)CN2C(=O)Nc2cn(C(N)=O)c3ccccc23)c1 [Example 437]" assigned_category="criterion not met"
molecule="CC(=O)n1cc(C(N)C(=O)N2C[C@H](F)C[C@H]2C(=O)NCc2cccc(Cl)c2F)c2ccccc21 (stereo partly shown) [Example 120]" assigned_category="criterion not met"
molecule="NC(=O)n1cc(CC(=O)N2C[C@H](F)C[C@H]2C(=O)NCc2cccc(Cl)c2F)c2cc(F)ccc21 [Example 460]" assigned_category="criterion met"
molecule="O=C(CO)c1cn(CC(=O)N2C[C@H](F)C[C@H]2C(=O)NCc2cccc(Cl)c2F)c2ccccc12 [Example 563]" assigned_category="criterion met"
molecule="CC(=O)c1cn(CC(=O)N2CCCC[C@H]2C(=O)NCc2cccc(Cl)c2F)c2ccccc12 [Example 478]" assigned_category="criterion not met"
molecule="NC(=O)n1cc(NC(=O)N2NCC[C@@H]2C(=O)NCc2cccc(Cl)c2F)c2ccccc21 [Example 433]" assigned_category="criterion not met"
molecule="NC(=O)n1cc(NC(=O)N2C[C@H](F)C[C@H]2CNS(=O)(=O)c2cccc(OC(F)(F)F)c2)c2ccccc21 [Example 109]" assigned_category="criterion not met"
molecule="NC(=O)n1cc(NC(=O)N2C[C@@H](N)C[C@H]2C(=O)NCc2cc(Cl)cc(Cl)c2)c2ccccc21 [Example 60]" assigned_category="criterion not met"
molecule="CC(=O)c1cn(CC(=O)N2C[C@@H](N)[C@H](F)[C@H]2C(=O)NCc2cccc(Cl)c2F)c2ccccc12 [Example 576]" assigned_category="criterion not met"
molecule="NC(=O)n1cc(NC(=O)N2CCNC[C@H]2C(=O)NCc2cccc(Cl)c2)c2ccccc21 [Example 399]" assigned_category="criterion not met"
molecule="NC(=O)n1cc(NC(=O)N2C[C@](O)(CO)C[C@H]2C(=O)NCc2cccc(Cl)c2F)c2ccccc21 [Example 202]" assigned_category="criterion not met"
molecule="CC(=O)c1nn(CC(=O)N2[C@@H]3C[C@@H]3C[C@H]2C(=O)Nc2cncc(Br)n2)c2ccccc12 [Example 757]" assigned_category="criterion met"
molecule="Cc1cc2c(C(N)=O)nn(CC(=O)N3[C@@H]4C[C@@H]4C[C@H]3C(=O)N[C@H](C)c3cccc(Cl)c3F)c2c(C)n1 [Example 696]" assigned_category="criterion not met"
molecule="NC(=O)n1cc(NC(=O)N2CC[C@@H](O)[C@H]2C(=O)NCc2cccc(Cl)c2)c2ccccc21 [Example 177]" assigned_category="criterion met"
molecule="NC(=O)c1nn(CC(=O)N2[C@@H]3C[C@@H]3C[C@H]2C(=O)NCc2cccc(Cl)c2F)c2cnccc12 [Example 703]" assigned_category="criterion met"
molecule="CC(=O)c1cn(CC(=O)N2[C@@H]3C[C@@H]3C[C@H]2C(=O)NCc2cccc(Cl)c2F)c2ccccc12 [Example 510]" assigned_category="criterion met"
molecule="CC(=O)c1cn(CC(=O)N2C[C@H](F)C[C@H]2C(=O)NCc2cccc(Cl)c2F)c2cc(OC(F)(F)F)ccc12 [Example 509]" assigned_category="criterion met"
molecule="NC(=O)n1cc(NC(=O)N2C[C@H](F)[C@@H](N)[C@H]2C(=O)NCc2cccc(Cl)c2F)c2ccccc21 [Example 431]" assigned_category="criterion met"
molecule="CC(C)c1cccc(NC(=O)[C@@H]2C[C@H](N)CN2C(=O)Nc2cn(C(N)=O)c3ccccc23)c1 [Example 102]" assigned_category="criterion not met"
molecule="COC[C@@H](NC(=O)[C@@H]1C[C@H]2C[C@H]2N1C(=O)Cn1cc(C(C)=O)c2ccccc21)c1cccc(Cl)c1F [Example 568]" assigned_category="criterion not met"
molecule="NC(=O)c1nn(CC(=O)N2[C@@H]3C[C@@H]3C[C@H]2C(=O)Nc2cccc(C(F)(F)F)n2)c2cnccc12 [Example 732]" assigned_category="criterion met"
molecule="NC(=O)n1cc(NC(=O)N2C[C@H](F)C[C@H]2C(=O)NCc2cc(CN3CCOCC3)cc(Cl)c2F)c2ccccc21 [Example 18]" assigned_category="criterion not met"
